# IC50 values compiled below
# Test system: Target C mRNA
# protocolDescription: RT-qPCR splicing assay panel, Target C canonical junction (CJ) mRNA
# Format: cell-based, human
# experimentalConditions: Homo sapiens, canonical junction (CJ) mRNA, RT-qPCR panel, Table 4A; read-out: Target C, decrease in CJ mRNA levels, IC50

Oc1cc(-c2cc(OC(F)F)ncn2)ccc1-c1ccc(N2CCC(NCC3CC3)C2)nn1 (stereo not shown)	> 10000 nM

get_value(item= "COc1cc(-c2ccc(-c3ccc(N4CC[C@@H](NCC5CC5)C4)nn3)c(O)c2)ncn1" , readout=IC50) returns 100 to 1000 nM

get_value(item= "COc1cc(-c2cc(O)c(-c3ccc(OC4CC(C)(C)NC(C)(C)C4)nn3)cc2F)cnn1" , readout=IC50) returns 100 to 1000 nM

get_value(item= COc1cc(-c2ccc(-c3ccc(N4CCC(N[C@H]5C[C@H](OC)C5)C4)nn3)c(O)c2)cnn1 (stereo partly shown) , readout=IC50) returns 100 to 1000 nM

get_value(item= COc1cc(-c2ccc(-c3ccc(N4CCC(NC56CC(C5)C6)C4)nn3)c(O)c2)cnn1 (stereo not shown) , readout=IC50) returns 100 to 1000 nM

get_value(item= Oc1cc(-c2cn[nH]c2)ccc1-c1ccc(N2CCC(NC3(C(F)F)CC3)C2)nn1 (stereo not shown) , readout=IC50) returns > 10000 nM

get_value(item= "COc1cc(-c2ccc(-c3ccc(N4CC[C@@H](N[C@H]5C[C@H](F)C5)C4)nn3)c(O)c2)ncn1" , readout=IC50) returns 1000 to 10000 nM

# credit: patent US20250333397A1
